# collection of Average (percentage cell inhibition), Dmastoparan MDA-MB231 12.5uM values tested on MDA-MB-231 cells
Give the value, in units of %, as a plain number.

| MOL SMILES | TARGET SYSTEM | READOUT UNIT | ASSAY RESULT |
| --- | --- | --- | --- |
| CC[C@H](C)[C@H](N)C(=O)N[C@@H](CC(N)=O)C(=O)N[C@@H](CC(C)C)C(=O)N[C@@H](CCCCN)C(=O)N[C@@H](CC(N)=O)C(=O)N[C@@H](CC(C)C)C(=O)N[C@@H](C)C(=O)N[C@@H](C)C(=O)N[C@@H](CC(C)C)C(=O)N[C@@H](C)C(=O)N[C@@H](CCCCN)C(=O)N[C@@H](CCCCN)C(=O)N[C@H](C(=O)N[C@@H](CC(C)C)C(N)=O)[C@@H](C)CC | MDA-MB-231 cells | % | 45.6062 |
| CC[C@H](C)[C@H](N)C(=O)N[C@@H](CC(N)=O)C(=O)N[C@@H](CC(C)C)C(=O)N[C@@H](CCCCN)C(=O)N[C@@H](C)C(=O)N[C@@H](CC(C)C)C(=O)N[C@@H](C)C(=O)N[C@@H](C)C(=O)N[C@@H](CC(C)C)C(=O)N[C@@H](C)C(=O)N[C@@H](CCCCN)C(=O)N[C@@H](CCCCN)C(=O)N[C@H](C(=O)N[C@@H](CCC(=O)O)C(N)=O)[C@@H](C)CC | MDA-MB-231 cells | % | 33.8434 |
| CC[C@H](C)[C@H](N)C(=O)N[C@@H](CC(N)=O)C(=O)N[C@@H](CC(C)C)C(=O)N[C@@H](Cc1c[nH]cn1)C(=O)N[C@@H](C)C(=O)N[C@@H](CC(C)C)C(=O)N[C@@H](C)C(=O)N[C@@H](C)C(=O)N[C@@H](CC(C)C)C(=O)N[C@@H](C)C(=O)N[C@@H](CCCCN)C(=O)N[C@@H](CCCCN)C(=O)N[C@H](C(=O)N[C@@H](CC(C)C)C(N)=O)[C@@H](C)CC | MDA-MB-231 cells | % | 21.387 |

Let's switch to this molecule now.
Task item: Quick check: Average (percentage cell inhibition), Dmastoparan MDA-MB231 12.5uM on MDA-MB-231 cells, item CC[C@H](C)[C@H](N)C(=O)N[C@@H](CC(N)=O)C(=O)N[C@@H](CC(C)C)C(=O)N[C@@H](CCCCN)C(=O)N[C@@H](C)C(=O)N[C@@H](CC(C)C)C(=O)N[C@@H](C)C(=O)N[C@@H](C)C(=O)N[C@@H](CC(C)C)C(=O)N[C@@H](C)C(=O)N[C@@H](CCC(N)=O)C(=O)N[C@@H](CCCCN)C(=O)N[C@H](C(=O)N[C@@H](CC(C)C)C(N)=O)[C@@H](C)CC ?
Reply: 41.2471

---

Test system: PBMC
EXPERIMENTAL CONTEXT: 12.5 µM
Quick reference for Average (percentage cell inhibition), Mastoparan PBMC among some compounds
Give the value, in units of %, as a plain number.

Answered cases to consult:
| MOL SMILES | ASSAY RESULT |
| --- | --- |
| CC[C@H](C)[C@H](N)C(=O)N[C@@H](CC(N)=O)C(=O)N[C@@H](CC(C)C)C(=O)N[C@@H](CCCCN)C(=O)N[C@@H](C)C(=O)N[C@@H](CC(C)C)C(=O)N[C@@H](C)C(=O)N[C@@H](C)C(=O)N[C@@H](CC(C)C)C(=O)N[C@@H](C)C(=O)N[C@@H](C)C(=O)N[C@@H](CCCCN)C(=O)N[C@H](C(=O)N[C@@H](CC(C)C)C(N)=O)[C@@H](C)CC | 11.43 |
| CC[C@H](C)[C@H](N)C(=O)N[C@@H](CC(N)=O)C(=O)N[C@@H](CC(N)=O)C(=O)N[C@@H](CCCCN)C(=O)N[C@@H](C)C(=O)N[C@@H](CC(C)C)C(=O)N[C@@H](C)C(=O)N[C@@H](C)C(=O)N[C@@H](CC(C)C)C(=O)N[C@@H](C)C(=O)N[C@@H](CCCCN)C(=O)N[C@@H](CCCCN)C(=O)N[C@H](C(=O)N[C@@H](CC(C)C)C(N)=O)[C@@H](C)CC | -0.8054 |
| CC[C@H](C)[C@H](N)C(=O)N[C@H](C(=O)N[C@@H](CC(C)C)C(=O)N[C@@H](CCCCN)C(=O)N[C@@H](C)C(=O)N[C@@H](CC(C)C)C(=O)N[C@@H](C)C(=O)N[C@@H](C)C(=O)N[C@@H](CC(C)C)C(=O)N[C@@H](C)C(=O)N[C@@H](CCCCN)C(=O)N[C@@H](CCCCN)C(=O)N[C@H](C(=O)N[C@@H](CC(C)C)C(N)=O)[C@@H](C)CC)[C@@H](C)O | 20.7916 |
| CC[C@H](C)[C@H](N)C(=O)N[C@@H](CC(N)=O)C(=O)N[C@@H](Cc1c[nH]cn1)C(=O)N[C@@H](CCCCN)C(=O)N[C@@H](C)C(=O)N[C@@H](CC(C)C)C(=O)N[C@@H](C)C(=O)N[C@@H](C)C(=O)N[C@@H](CC(C)C)C(=O)N[C@@H](C)C(=O)N[C@@H](CCCCN)C(=O)N[C@@H](CCCCN)C(=O)N[C@H](C(=O)N[C@@H](CC(C)C)C(N)=O)[C@@H](C)CC | -4.438 |
| CC[C@H](C)[C@H](N)C(=O)N[C@@H](CC(N)=O)C(=O)N[C@@H](CC(C)C)C(=O)N[C@@H](CCC(N)=O)C(=O)N[C@@H](C)C(=O)N[C@@H](CC(C)C)C(=O)N[C@@H](C)C(=O)N[C@@H](C)C(=O)N[C@@H](CC(C)C)C(=O)N[C@@H](C)C(=O)N[C@@H](CCCCN)C(=O)N[C@@H](CCCCN)C(=O)N[C@H](C(=O)N[C@@H](CC(C)C)C(N)=O)[C@@H](C)CC | -3.9555 |

Task item: Quick check: Average (percentage cell inhibition), Mastoparan PBMC on PBMC, item CC[C@H](C)[C@H](N)C(=O)N[C@@H](CC(N)=O)C(=O)N[C@@H](CC(C)C)C(=O)N[C@@H](CCCCN)C(=O)N[C@@H](C)C(=O)N[C@@H](CC(C)C)C(=O)N[C@@H](C)C(=O)N[C@@H](C)C(=O)N[C@@H](CC(C)C)C(=O)N[C@@H](CCCNC(=N)N)C(=O)N[C@@H](CCCCN)C(=O)N[C@@H](CCCCN)C(=O)N[C@H](C(=O)N[C@@H](CC(C)C)C(N)=O)[C@@H](C)CC ?
Reply: 5.821

Task item: Quick check: Average (percentage cell inhibition), Mastoparan PBMC on PBMC, item CC[C@H](C)[C@H](N)C(=O)N[C@@H](CC(N)=O)C(=O)N[C@@H](CC(C)C)C(=O)N[C@@H](Cc1c[nH]cn1)C(=O)N[C@@H](C)C(=O)N[C@@H](CC(C)C)C(=O)N[C@@H](C)C(=O)N[C@@H](C)C(=O)N[C@@H](CC(C)C)C(=O)N[C@@H](C)C(=O)N[C@@H](CCCCN)C(=O)N[C@@H](CCCCN)C(=O)N[C@H](C(=O)N[C@@H](CC(C)C)C(N)=O)[C@@H](C)CC ?
Reply: -2.6725

Task item: Quick check: Average (percentage cell inhibition), Mastoparan PBMC on PBMC, item CC[C@H](C)[C@H](N)C(=O)N[C@@H](CC(N)=O)C(=O)N[C@@H](CC(C)C)C(=O)N[C@@H](CCCCN)C(=O)N[C@@H](C)C(=O)N[C@@H](CO)C(=O)N[C@@H](C)C(=O)N[C@@H](C)C(=O)N[C@@H](CC(C)C)C(=O)N[C@@H](C)C(=O)N[C@@H](CCCCN)C(=O)N[C@@H](CCCCN)C(=O)N[C@H](C(=O)N[C@@H](CC(C)C)C(N)=O)[C@@H](C)CC ?
Reply: -17.608

Task item: Quick check: Average (percentage cell inhibition), Mastoparan PBMC on PBMC, item CC[C@H](C)[C@H](N)C(=O)N[C@@H](CC(N)=O)C(=O)N[C@@H](CC(C)C)C(=O)N[C@@H](CCCCN)C(=O)N[C@@H](C)C(=O)N[C@@H](CC(C)C)C(=O)N[C@@H](C)C(=O)N[C@@H](CCCCN)C(=O)N[C@@H](CC(C)C)C(=O)N[C@@H](C)C(=O)N[C@@H](CCCCN)C(=O)N[C@@H](CCCCN)C(=O)N[C@H](C(=O)N[C@@H](CC(C)C)C(N)=O)[C@@H](C)CC ?
Reply: 13.8127

Task item: Quick check: Average (percentage cell inhibition), Mastoparan PBMC on PBMC, item CC[C@H](C)[C@H](N)C(=O)N[C@@H](CC(N)=O)C(=O)N[C@@H](CC(C)C)C(=O)N[C@@H](CCCCN)C(=O)N[C@@H](CC(C)C)C(=O)N[C@@H](CC(C)C)C(=O)N[C@@H](C)C(=O)N[C@@H](C)C(=O)N[C@@H](CC(C)C)C(=O)N[C@@H](C)C(=O)N[C@@H](CCCCN)C(=O)N[C@@H](CCCCN)C(=O)N[C@H](C(=O)N[C@@H](CC(C)C)C(N)=O)[C@@H](C)CC ?
Reply: 25.5295
